A collection of compounds and their measured pIC50
Subject of test: Beta-secretase 1 (Homo sapiens, UniProt P56817)
Sequence (P56817 whole entry): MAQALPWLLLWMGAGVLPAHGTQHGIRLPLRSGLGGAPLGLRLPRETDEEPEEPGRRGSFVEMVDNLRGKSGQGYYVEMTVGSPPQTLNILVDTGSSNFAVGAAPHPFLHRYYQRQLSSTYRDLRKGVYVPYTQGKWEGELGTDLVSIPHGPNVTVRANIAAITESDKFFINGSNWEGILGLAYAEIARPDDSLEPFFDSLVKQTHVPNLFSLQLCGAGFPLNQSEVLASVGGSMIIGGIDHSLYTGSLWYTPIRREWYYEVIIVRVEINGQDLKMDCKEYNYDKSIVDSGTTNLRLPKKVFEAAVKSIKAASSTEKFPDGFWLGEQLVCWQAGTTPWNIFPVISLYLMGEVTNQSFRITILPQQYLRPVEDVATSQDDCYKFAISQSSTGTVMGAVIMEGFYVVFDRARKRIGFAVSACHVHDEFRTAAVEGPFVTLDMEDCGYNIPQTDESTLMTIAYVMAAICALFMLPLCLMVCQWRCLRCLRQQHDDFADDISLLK
pIC50: −log10 of the molar value.
Experimental readout: pIC50

• CCCN(CCC)C(=O)c1cc(C(N)=O)cc(C(=O)N[C@@H](Cc2cc(F)cc(F)c2)[C@H](O)CNCc2cccc(CC)c2)c1 = 8.30
• CCCN(CCC)C(=O)c1cc(C)cc(C(=O)N[C@@H](Cc2ccccc2)[C@H](O)CNCc2cccc(OC)c2)c1 = 7.00
• CCCN(CCC)C(=O)c1cc(C)cc(C(=O)N[C@@H](Cc2cc(F)cc(F)c2)[C@H](O)CNCc2cccc(CC)c2)c1 = 8.70
• CCCN(CCC)C(=O)c1cc(C(N)=O)cc(C(=O)N[C@@H](Cc2ccc(O)cc2)[C@H](O)CNCc2cccc(OC)c2)c1 = 6.52
